Data provenance is a melting point compilation (Tetko et al.; mined from patent text by program, amines drawn as free bases though some values may be those of a salt).

Below, each entry is listed with its recorded melting point.

Recorded melting point, per entry:
# compound, melting point
measured = [
    ("O=C(O)c1c(Cl)ccc2cc(C(F)(F)F)cnc12", "250 °C"),
    ("CC(=O)OCC1OC(n2nnnc2Cl)C(OC(C)=O)C(OC(C)=O)C1OC(C)=O (stereo not given)", "172 °C"),
]

*Q* What value of melting point has been recorded for this entry: `CCCCc1nn(-c2cc(NC(=O)CC)ccc2C(F)(F)F)c(=O)n1Cc1ccc(-c2ccccc2S(=O)(=O)NC(=O)OC(C)(C)C)cc1`
*A* 158 to 161 °C

*Q* What value of melting point has been recorded for this entry: `CNc1nc(N)nc(NC)n1`
*A* 291 °C

*Q* What value of melting point has been recorded for this entry: COCC1CN(c2c(F)cc3c(=O)c(C(=O)O)cn([C@@H]4C[C@@H]4F)c3c2OC)CCN1 (stereo not given in full)
*A* 92 to 95 °C

*Q* What value of melting point has been recorded for this entry: `c1cnc2cc3c(cc2n1)CCNCC3`
*A* 114 to 116 °C

*Q* What value of melting point has been recorded for this entry: `COc1ccc(C2CCN(C(N)=O)CC2)cc1OC1CCCC1`
*A* 149 to 150 °C

*Q* What value of melting point has been recorded for this entry: `O=C(O)CCCCCCCCN1NNN=C1C(c1ccccc1)c1ccccc1`
*A* 68 to 70 °C

*Q* What value of melting point has been recorded for this entry: `c1ccc(Oc2cccc(CSc3nc4cnccc4[nH]3)c2)cc1`
*A* 156 to 158 °C

*Q* What value of melting point has been recorded for this entry: `COc1cc2c(O)c(S(=O)(=O)N(C)C)cnc2cc1C`
*A* 295 to 297 °C
